Assignment: determine reported variant/HC_K99L for the given binders.
Biological target: T1, human tissue factor pathway inhibitor (TFPI) (human, UniProt P10646 29-304, limits assumed)
T1 construct: bought; also called hTFPI; human TFPI
T1 sequence (looked up): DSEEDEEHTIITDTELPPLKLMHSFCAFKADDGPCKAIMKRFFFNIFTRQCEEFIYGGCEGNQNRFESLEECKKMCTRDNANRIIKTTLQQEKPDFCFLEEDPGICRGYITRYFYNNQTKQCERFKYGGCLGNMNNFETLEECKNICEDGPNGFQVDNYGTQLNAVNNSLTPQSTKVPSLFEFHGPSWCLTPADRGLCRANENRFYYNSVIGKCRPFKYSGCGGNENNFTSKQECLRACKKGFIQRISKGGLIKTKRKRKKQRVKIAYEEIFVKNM
Test: competitive ELISA
Give the quantity in ratio, number only.

Record summary for 2A8 HC S35D+S55R+K99L/LC S21T+Y48F+N51V+D91W (Fab, V domains shown) VH: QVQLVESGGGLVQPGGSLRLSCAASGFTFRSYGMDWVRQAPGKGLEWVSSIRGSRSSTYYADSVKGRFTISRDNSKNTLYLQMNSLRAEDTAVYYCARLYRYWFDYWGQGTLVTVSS VL: DIELTQPPSVSVAPGQTARITCSGDNLRNYYAHWYQQKPGQAPVVVIFYDVNRPSGIPERFSGSNSGNTATLTISGTQAEDEADYYCQSWWDGVPVFGGGTKLTVLG : reported variant/HC_K99L = 19.5

For record 2A8 HC S31V+S50A+I51D+S55R+K99V/LC Y48F+D91L+V96W (Fab, V domains shown) VH: QVQLVESGGGLVQPGGSLRLSCAASGFTFRVYGMSWVRQAPGKGLEWVSADRGSRSSTYYADSVKGRFTISRDNSKNTLYLQMNSLRAEDTAVYYCARVYRYWFDYWGQGTLVTVSS VL: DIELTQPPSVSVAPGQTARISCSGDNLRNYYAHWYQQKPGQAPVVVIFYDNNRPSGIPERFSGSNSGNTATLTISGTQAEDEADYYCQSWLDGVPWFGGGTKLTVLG the listed variant/HC_K99L is 16.6

// field: variant/HC_K99L; key: 2A8 HC S35D+S55R+K99L/LC D1S+Y48F+N51V+D91W (Fab, V domains shown) VH: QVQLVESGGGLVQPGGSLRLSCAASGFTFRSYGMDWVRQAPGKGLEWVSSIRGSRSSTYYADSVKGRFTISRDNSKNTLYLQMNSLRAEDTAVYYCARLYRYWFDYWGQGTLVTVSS VL: SIELTQPPSVSVAPGQTARISCSGDNLRNYYAHWYQQKPGQAPVVVIFYDVNRPSGIPERFSGSNSGNTATLTISGTQAEDEADYYCQSWWDGVPVFGGGTKLTVLG ; value = 21.9

Measured variant/HC_K99L of 2A8 HC G33P+I51D+S54F/LC Y48F+N51V+V96W (Fab, V domains shown) VH: QVQLVESGGGLVQPGGSLRLSCAASGFTFRSYPMSWVRQAPGKGLEWVSSDRGFSSSTYYADSVKGRFTISRDNSKNTLYLQMNSLRAEDTAVYYCARKYRYWFDYWGQGTLVTVSS VL: DIELTQPPSVSVAPGQTARISCSGDNLRNYYAHWYQQKPGQAPVVVIFYDVNRPSGIPERFSGSNSGNTATLTISGTQAEDEADYYCQSWDDGVPWFGGGTKLTVLG : 0.6

For this binder ( 2A8 HC S35D+K99L/LC Y48F+D91L+V94T+V96W (Fab, V domains shown) VH: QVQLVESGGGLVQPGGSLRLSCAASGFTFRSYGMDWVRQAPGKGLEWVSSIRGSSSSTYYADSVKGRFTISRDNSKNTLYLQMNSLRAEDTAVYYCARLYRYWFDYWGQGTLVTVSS VL: DIELTQPPSVSVAPGQTARISCSGDNLRNYYAHWYQQKPGQAPVVVIFYDNNRPSGIPERFSGSNSGNTATLTISGTQAEDEADYYCQSWLDGTPWFGGGTKLTVLG ), measured variant/HC_K99L is 18.6

Entry 2A8-g200 (HC Q1E+R30S+S35D+S55R+S56G+K99L/LC D1S+I2Y+A13S+S21T+R28P+N29K+Y48F+N51V+E80M+S89A+D91W+D92S+G93S+V94T) (Fab, V domains shown) VH: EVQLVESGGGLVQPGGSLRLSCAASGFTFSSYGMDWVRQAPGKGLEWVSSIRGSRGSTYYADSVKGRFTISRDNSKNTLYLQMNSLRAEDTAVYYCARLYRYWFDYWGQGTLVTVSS VL: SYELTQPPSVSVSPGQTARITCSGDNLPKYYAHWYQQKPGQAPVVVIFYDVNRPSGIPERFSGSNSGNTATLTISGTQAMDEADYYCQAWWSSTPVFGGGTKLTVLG , variant/HC_K99L reported as 18.3

response.value for 2A8 HC S35D+I51E+S55R+K99L/LC Y48F+N51V+D91L+V96W (Fab, V domains shown) VH: QVQLVESGGGLVQPGGSLRLSCAASGFTFRSYGMDWVRQAPGKGLEWVSSERGSRSSTYYADSVKGRFTISRDNSKNTLYLQMNSLRAEDTAVYYCARLYRYWFDYWGQGTLVTVSS VL: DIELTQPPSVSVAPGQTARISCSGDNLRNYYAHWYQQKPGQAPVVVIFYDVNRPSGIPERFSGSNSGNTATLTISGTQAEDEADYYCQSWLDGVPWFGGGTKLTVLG (field: variant/HC_K99L) = 10.4

Form field variant/HC_K99L, entry 2A8 HC S35D+R52S+K99L/LC Y48F+D91L+V96W (Fab, V domains shown) VH: QVQLVESGGGLVQPGGSLRLSCAASGFTFRSYGMDWVRQAPGKGLEWVSSISGSSSSTYYADSVKGRFTISRDNSKNTLYLQMNSLRAEDTAVYYCARLYRYWFDYWGQGTLVTVSS VL: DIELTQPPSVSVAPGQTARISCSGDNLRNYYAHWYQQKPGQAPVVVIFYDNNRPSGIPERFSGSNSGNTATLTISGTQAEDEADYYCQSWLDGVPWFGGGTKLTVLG : 3.9

Data point: 2A8 HC S31V+I51D+S55R+S56G+K99V/LC Y48F+D91L+V96W (Fab, V domains shown) VH: QVQLVESGGGLVQPGGSLRLSCAASGFTFRVYGMSWVRQAPGKGLEWVSSDRGSRGSTYYADSVKGRFTISRDNSKNTLYLQMNSLRAEDTAVYYCARVYRYWFDYWGQGTLVTVSS VL: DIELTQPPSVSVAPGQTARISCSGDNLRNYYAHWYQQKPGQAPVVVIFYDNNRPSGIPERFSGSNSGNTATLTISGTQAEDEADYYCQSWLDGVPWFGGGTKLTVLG ; variant/HC_K99L = 16.2

// sample 2A8 HC R30S+S31V+I51D+S55R+K99V/LC Y48F+D91L+V96W (Fab, V domains shown) VH: QVQLVESGGGLVQPGGSLRLSCAASGFTFSVYGMSWVRQAPGKGLEWVSSDRGSRSSTYYADSVKGRFTISRDNSKNTLYLQMNSLRAEDTAVYYCARVYRYWFDYWGQGTLVTVSS VL: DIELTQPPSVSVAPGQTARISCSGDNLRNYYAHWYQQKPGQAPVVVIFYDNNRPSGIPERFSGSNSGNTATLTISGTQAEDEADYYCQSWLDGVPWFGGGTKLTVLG , its variant/HC_K99L was 13.5
